- experimental.target: TDP-43 (Homo sapiens, UniProt Q13148 1-414)
- Sequence (Q13148 whole entry): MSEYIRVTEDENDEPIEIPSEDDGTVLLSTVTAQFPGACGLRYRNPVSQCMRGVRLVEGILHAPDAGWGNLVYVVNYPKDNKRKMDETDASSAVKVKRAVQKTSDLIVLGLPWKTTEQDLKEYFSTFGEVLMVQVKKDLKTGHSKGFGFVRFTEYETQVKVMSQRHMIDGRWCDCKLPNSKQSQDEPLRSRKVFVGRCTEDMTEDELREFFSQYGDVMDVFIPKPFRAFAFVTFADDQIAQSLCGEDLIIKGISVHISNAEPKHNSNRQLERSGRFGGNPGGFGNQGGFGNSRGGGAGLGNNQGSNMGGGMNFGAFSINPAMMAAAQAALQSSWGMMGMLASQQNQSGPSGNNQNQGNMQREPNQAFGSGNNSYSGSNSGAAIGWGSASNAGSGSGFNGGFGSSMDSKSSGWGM
- assay.name: RNA Bind-n-Seq with designed 260-mer pool; 25 mM Tris-HCl, 150 mM KCl, 3 mM MgCl2, BSA (printed 500 mg/mL), 20 units/mL SUPERase IN; pH not stated; 500 nM RNA pool, 1 h, 4 C; TDP-43 5, 50, 500 nM; high values mean tight binding
- measurement.parameters: protein: recombinant; tags: SBP (GST cleaved off with PreScission; pGEX-GST-SBP)
Whole data set: some 9,900 sequences, median “r (bound/input frequency ratio)” near 0.7, cut for the highest 2% near 6.5. This excerpt belongs to a sample that is enriched for the highest values.
attribute.measured: binding signal

binder	test.value
ENSMUSG00000022095.7|Fam160b2|99:103 (ssRNA) RNA: GGGAGUUCUACAGUCCGACGAUCGCUUCGAUAUCCGCAUGCUAGUCAAGUUUCCCCCACACGGUCCUUACCUGAACUUCUCUCCACCUCCAGAAGGGCAAGUCUGAGCCAGGAGCAUGACGGGUGGGGGAAGAUUCCUGCCACACAACUUCUGCCCACGGGCAGUCUCCUGCCUGGCCAUGCUGCCACUCUGUCCUCCAUGCCGGGGACUUCAGCUGCAGGACACCUCACCUGUUGACCCCACGAGCUGAGGUUUCAAGGAGGUGCUGGCUCCUAAGGCAGUGGUAUUCUUGGAGCCUUUUAGCUCUUGCGGUCGCACUAGUGUGGAAUUCUCGGGUGUCAAGG	0.238 R (bound/input frequency ratio)
ENSMUSG00000031028.308|Tub (ssRNA) RNA: GGGAGUUCUACAGUCCGACGAUCGCUUCGAUAUCCGCAUGCUAGAACCCUCAGCGAGGUAGCCUUUGUUUACAGUCUAGUUUCUAGAGGGCAGUAGGACUUCCAUGCUGGGGCUGGCCUAUCUCCUGAUGAAAGAUUACAGUGCCAUCUCCUUCCCAUAGUUCUGUGUCUGCCCUCCCUCCCUGACUUUAUAGGGAGAAAUCUCCUGACAUUAGAGGUGAUAGAAACCAGAGCUUUAGUCUAGUCAGGCUGUUUCUCUGGGUUGACAAGUUUAAGGUUGAACAGGCUGAUUUCUGGAAUCUCACUCUUGCGGUCGCACUAGUGUGGAAUUCUCGGGUGUCAAGG	0.194 R (bound/input frequency ratio)
ENSMUSG00000029028.179|Lrrc47|115:119 (ssRNA) RNA: GGGAGUUCUACAGUCCGACGAUCGCUUCGAUAUCCGCAUGCUAACAGAUGCUUCGUGGACUGUGCCUCACACAUGGCCCUGCAGGCUCCAUGUCAGCGUGUCCCACUAUUCAUGUCCCAUCUCUGUGCAUCCUGACUGCGCACAUCCCAUCUCCGCAACACAACGCAUCUGUACCAGCACACAGCUGCCAUCCCUCGAGCCACAGUGCCUGGUCCUAAGGACCCAGCAGCUGCACAGAGGACUUGGUGGCCCCGUGCCUUGCCAUCUGGCUGAGAAGAGAACCAGACCCUCAGCCUUCCCCCUCUCUUGCGGUCGCACUAGUGUGGAAUUCUCGGGUGUCAAGG	0.745 R (bound/input frequency ratio)
ENSMUSG00000061578.408|Ksr2 (ssRNA) RNA: GGGAGUUCUACAGUCCGACGAUCGCUUCGAUAUCCGCAUGCUAAUCAGUCUCUUCCCGGAGGAAGCAUCCGGGGGAAAUGUAUUCCUUCGCCCUGCAAGGAGCCAAUGGGAAGAGAGGGGACCAUAUAGUUAGAGACAUUCCCUACCCCCCGACCACUGACCCGUCCAGACCCUCGCUUCUUACAAUGCCUCUUCUUCUGCCAGACCAGCCACCUGCCCCACUAACACCAAAUGGCUUCUGUCCCUGCUUCACGUUGCAAAUCCUUCAAGACAGAAGUUUCAGAGGGGAUAGUUCCUUCUAACCUCUUGCGGUCGCACUAGUGUGGAAUUCUCGGGUGUCAAGG	1.09 R (bound/input frequency ratio)
